Recorded values, source ChEMBL document CHEMBL1153322.

# assay-target: UniProtKB Q15761
# experiment-notes: Displacement of [125I]PYY from human recombinant Y5 receptor expressed in mouse LMtk cells
quantity: pIC50
Please treat pIC50 as minus the base-10 logarithm of the molar concentration.

Recorded results for 6 compounds are shown here.
{"line-notation": "O=C(Nc1cc(-c2ccc(Cl)cc2)n[nH]1)C1Cc2ccccc2C1", "assay-target": "UniProtKB Q15761", "quantity": "pIC50", "assay-value": 7.23}
{"line-notation": "CS(=O)(=O)N1CC2(CCN(C(=O)Nc3cccc(-c4ccccc4)c3)CC2)c2ccccc21", "assay-target": "UniProtKB Q15761", "quantity": "pIC50", "assay-value": 8.89}
{"line-notation": "CS(=O)(=O)N1CC2(CCN(C(=O)Nc3ccc(-c4ccccc4)cn3)CC2)c2ccccc21", "assay-target": "UniProtKB Q15761", "quantity": "pIC50", "assay-value": 9.02}
{"line-notation": "CS(=O)(=O)N1CC2(CCN(C(=O)Cc3ccc(-c4ccccc4)cc3)CC2)c2ccccc21", "assay-target": "UniProtKB Q15761", "quantity": "pIC50", "assay-value": 6.74}
{"line-notation": "CS(=O)(=O)N1CC2(CCN(C(=O)Nc3ccc(-c4ccccn4)cc3)CC2)c2ccccc21", "assay-target": "UniProtKB Q15761", "quantity": "pIC50", "assay-value": 8.52}
{"line-notation": "CS(=O)(=O)N1CC2(CCN(C(=O)Nc3cnc(-c4ccccc4)cn3)CC2)c2ccccc21", "assay-target": "UniProtKB Q15761", "quantity": "pIC50", "assay-value": 9.01}

Lab note: CS(=O)(=O)N1CC2(CCN(C(=O)Nc3ccc(-c4ccncc4)cc3)CC2)c2ccccc21 gave pIC50 of 8.39

Lab note: NS(=O)(=O)N1CC2(CCN(C(=O)Nc3ccc(Oc4ccccc4)cc3)CC2)c2ccccc21 gave pIC50 of 8.52

* * *

# experiment-notes: Solubility at pH 5
# Assay type: physicochemical
# measurement-conditions: buffer
quantity: solubility

Lab note: CS(=O)(=O)N1CC2(CCN(C(=O)Nc3ccc(-c4ccccc4)cc3)CC2)c2ccccc21 gave solubility of < 0.01 µg/mL

* * *

Quick list: IC50 per entry.
# assay-target: Neuropeptide Y receptor type 5 (Homo sapiens, UniProt Q15761)
# Sequence (Q15761 whole entry): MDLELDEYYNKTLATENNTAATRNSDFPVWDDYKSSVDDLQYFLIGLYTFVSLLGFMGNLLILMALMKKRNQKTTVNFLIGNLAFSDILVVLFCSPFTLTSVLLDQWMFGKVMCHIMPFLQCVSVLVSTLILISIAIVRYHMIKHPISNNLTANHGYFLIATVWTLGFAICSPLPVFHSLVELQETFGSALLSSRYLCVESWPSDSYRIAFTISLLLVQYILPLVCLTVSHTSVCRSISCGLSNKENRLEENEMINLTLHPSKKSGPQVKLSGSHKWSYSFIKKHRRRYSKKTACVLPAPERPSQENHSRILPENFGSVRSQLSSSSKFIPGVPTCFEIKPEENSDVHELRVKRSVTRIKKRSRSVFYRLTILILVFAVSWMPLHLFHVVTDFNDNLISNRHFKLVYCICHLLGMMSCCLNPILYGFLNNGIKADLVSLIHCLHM
# experiment-notes: Displacement of [125I]PYY from human recombinant Y5 receptor expressed in mouse LMtk cells
Report the figure in nM without appending any unit label.

{"line-notation": "CS(=O)(=O)Nc1ccccc1N1CCN(C(=O)Nc2cc(-c3ccc(Cl)cc3)n[nH]2)CC1", "assay-target": "Neuropeptide Y receptor type 5 (Homo sapiens, UniProt Q15761)", "unit-spec": "nM", "assay-value": 1.4}
{"line-notation": "CS(=O)(=O)N1CC2(CCN(C(=O)Nc3cnc(-c4ccccc4)nc3)CC2)c2ccccc21", "assay-target": "Neuropeptide Y receptor type 5 (Homo sapiens, UniProt Q15761)", "unit-spec": "nM", "assay-value": 0.86}
{"line-notation": "CS(=O)(=O)N1C[C@]2(CC[C@H](C(=O)Nc3ccc(-c4ccccc4)cc3)CC2)c2ccccc21", "assay-target": "Neuropeptide Y receptor type 5 (Homo sapiens, UniProt Q15761)", "unit-spec": "nM", "assay-value": 1.5}
{"line-notation": "CC(=O)c1ccc(NC(=O)N2CCC3(CC2)CN(S(N)(=O)=O)c2ccccc23)cc1", "assay-target": "Neuropeptide Y receptor type 5 (Homo sapiens, UniProt Q15761)", "unit-spec": "nM", "assay-value": 2}
{"line-notation": "NS(=O)(=O)N1CC2(CCN(C(=O)Nc3ccc(Cl)c(Cl)c3)CC2)c2ccccc21", "assay-target": "Neuropeptide Y receptor type 5 (Homo sapiens, UniProt Q15761)", "unit-spec": "nM", "assay-value": 4}
{"line-notation": "CS(=O)(=O)N1CC2(CCN(C(=O)Nc3ccc(Cl)c(Cl)c3)CC2)c2ccccc21", "assay-target": "Neuropeptide Y receptor type 5 (Homo sapiens, UniProt Q15761)", "unit-spec": "nM", "assay-value": 0.2}

Lab note: NS(=O)(=O)N1CC2(CCN(C(=O)Nc3ccccc3Cl)CC2)c2ccccc21 gave IC50 of 5

Lab note: CS(=O)(=O)N1CC2(CCN(C(=O)Nc3ccc(-c4ccccc4)nc3)CC2)c2ccccc21 gave IC50 of 0.82

Lab note: CS(=O)(=O)N1CC2(CCN(C(=O)Nc3cccc(-c4ccncc4)c3)CC2)c2ccccc21 gave IC50 of 23

Lab note: CS(=O)(=O)N1CC2(CCN(C(=O)Nc3ccc(-c4cccnc4)cc3)CC2)c2ccccc21 gave IC50 of 2.1

Lab note: CCCCc1ccc(NC(=O)N2CCC3(CC2)CN(S(C)(=O)=O)c2ccccc23)cc1 gave IC50 of 1.2

Lab note: CS(=O)(=O)N1CC2(CCN(C(=O)Nc3ccc(-c4ccccc4)cc3)CC2)c2ccccc21 gave IC50 of 0.85

* * *

# experiment-notes: Lipophilicity, log D at pH 7.4
# Type: physicochemical
# measurement-conditions: buffer
quantity: logD

Lab note: CS(=O)(=O)N1CC2(CCN(C(=O)Nc3ccc(-c4ccccc4)cc3)CC2)c2ccccc21 gave logD of > 4

* * *

# experiment-notes: Solubility at pH 7
# Assay type: physicochemical
# measurement-conditions: buffer
quantity: solubility

Lab note: CS(=O)(=O)N1CC2(CCN(C(=O)Nc3ccc(-c4ccccc4)cc3)CC2)c2ccccc21 gave solubility of < 0.01 µg/mL

* * *

Quick list: Kp at 1 h per entry.
# experiment-notes: Ratio of drug level in brain to plasma of rat at 3 mg/kg, iv after 60 mins
# Assay type: ADME, organism-based
# Parameters: dose 3 mg/kg, route intravenous
# measurement-conditions: brain and plasma, read-out: BPR
Just the number.

{"line-notation": "CS(=O)(=O)N1CC2(CCN(C(=O)Nc3ccc(-c4ccccn4)cc3)CC2)c2ccccc21", "Kp at 1 h": 0.24}
{"line-notation": "CS(=O)(=O)N1CC2(CCN(C(=O)Nc3ccc(-c4ccccc4)cc3)CC2)c2ccccc21", "Kp at 1 h": 1.93}
{"line-notation": "CS(=O)(=O)N1CC2(CCN(C(=O)Nc3ccc(-c4ccncc4)cc3)CC2)c2ccccc21", "Kp at 1 h": 0.12}
{"line-notation": "CS(=O)(=O)N1CC2(CCN(C(=O)Nc3ccc(-c4cccnc4)cc3)CC2)c2ccccc21", "Kp at 1 h": 0.11}

Lab note: CS(=O)(=O)N1CC2(CCN(C(=O)Nc3ncc(-c4ccccc4)cn3)CC2)c2ccccc21 gave Kp at 1 h of 0.07

Lab note: CS(=O)(=O)N1CC2(CCN(C(=O)Nc3ccc(-c4ccccc4)nn3)CC2)c2ccccc21 gave Kp at 1 h of 0.32

* * *

Quick list: bioavailability per entry.
# experiment-notes: Oral bioavailability in rat at 10 mg/kg
# Assay type: ADME, organism-based
# measurement-conditions: in vivo
Report the figure in % without appending any unit label.

Recorded results for 8 compounds are shown here.
{"line-notation": "CS(=O)(=O)N1CC2(CCN(C(=O)Nc3ccc(-c4ccccc4)cn3)CC2)c2ccccc21", "bioavailability, %": 0}
{"line-notation": "CS(=O)(=O)N1CC2(CCN(C(=O)Nc3ccc(-c4ccccc4)nc3)CC2)c2ccccc21", "bioavailability, %": 0}
{"line-notation": "CS(=O)(=O)N1CC2(CCN(C(=O)Nc3ccc(-c4ccccc4)nn3)CC2)c2ccccc21", "bioavailability, %": 20}
{"line-notation": "CS(=O)(=O)N1CC2(CCN(C(=O)Nc3ncc(-c4ccccc4)cn3)CC2)c2ccccc21", "bioavailability, %": 24}
{"line-notation": "CS(=O)(=O)N1CC2(CCN(C(=O)Nc3ccc(-c4ccccn4)cc3)CC2)c2ccccc21", "bioavailability, %": 12}
{"line-notation": "CS(=O)(=O)N1CC2(CCN(C(=O)Nc3ccc(-c4ccccc4)cc3)CC2)c2ccccc21", "bioavailability, %": 0}
{"line-notation": "CS(=O)(=O)N1CC2(CCN(C(=O)Nc3cnc(-c4ccccc4)cn3)CC2)c2ccccc21", "bioavailability, %": 0}
{"line-notation": "CS(=O)(=O)N1CC2(CCN(C(=O)Nc3ccc(-c4ccncc4)cc3)CC2)c2ccccc21", "bioavailability, %": 53}

Lab note: CS(=O)(=O)N1CC2(CCN(C(=O)Nc3cnc(-c4ccccc4)nc3)CC2)c2ccccc21 gave bioavailability of 0

Lab note: CS(=O)(=O)N1CC2(CCN(C(=O)Nc3ccc(-c4cccnc4)cc3)CC2)c2ccccc21 gave bioavailability of 47
